The reported measurements were obtained from paper PMC6177136.

Test system: MM481
Experiment: Cytotoxicity assay, primary mesothelioma MM481
Assay type: cell-based, Human
Details: Homo sapiens; epithelioid, 72 h, SBR assay; read-out: IC50 ± SD MM481
measure.name: IC50 (µM)
All answers are understood in µM, so give the number only.

Reported IC50 for CC[C@@]1(O)C(=O)OCc2c1cc1n(c2=O)Cc2c-1nc1ccc(O)cc1c2C=NOCCCCCC(=O)NO [Compound 3d] : what is it?
11.7

====

Molecular target: HDAC6 (Homo sapiens)
Sequence (Q9UBN7 1-1215): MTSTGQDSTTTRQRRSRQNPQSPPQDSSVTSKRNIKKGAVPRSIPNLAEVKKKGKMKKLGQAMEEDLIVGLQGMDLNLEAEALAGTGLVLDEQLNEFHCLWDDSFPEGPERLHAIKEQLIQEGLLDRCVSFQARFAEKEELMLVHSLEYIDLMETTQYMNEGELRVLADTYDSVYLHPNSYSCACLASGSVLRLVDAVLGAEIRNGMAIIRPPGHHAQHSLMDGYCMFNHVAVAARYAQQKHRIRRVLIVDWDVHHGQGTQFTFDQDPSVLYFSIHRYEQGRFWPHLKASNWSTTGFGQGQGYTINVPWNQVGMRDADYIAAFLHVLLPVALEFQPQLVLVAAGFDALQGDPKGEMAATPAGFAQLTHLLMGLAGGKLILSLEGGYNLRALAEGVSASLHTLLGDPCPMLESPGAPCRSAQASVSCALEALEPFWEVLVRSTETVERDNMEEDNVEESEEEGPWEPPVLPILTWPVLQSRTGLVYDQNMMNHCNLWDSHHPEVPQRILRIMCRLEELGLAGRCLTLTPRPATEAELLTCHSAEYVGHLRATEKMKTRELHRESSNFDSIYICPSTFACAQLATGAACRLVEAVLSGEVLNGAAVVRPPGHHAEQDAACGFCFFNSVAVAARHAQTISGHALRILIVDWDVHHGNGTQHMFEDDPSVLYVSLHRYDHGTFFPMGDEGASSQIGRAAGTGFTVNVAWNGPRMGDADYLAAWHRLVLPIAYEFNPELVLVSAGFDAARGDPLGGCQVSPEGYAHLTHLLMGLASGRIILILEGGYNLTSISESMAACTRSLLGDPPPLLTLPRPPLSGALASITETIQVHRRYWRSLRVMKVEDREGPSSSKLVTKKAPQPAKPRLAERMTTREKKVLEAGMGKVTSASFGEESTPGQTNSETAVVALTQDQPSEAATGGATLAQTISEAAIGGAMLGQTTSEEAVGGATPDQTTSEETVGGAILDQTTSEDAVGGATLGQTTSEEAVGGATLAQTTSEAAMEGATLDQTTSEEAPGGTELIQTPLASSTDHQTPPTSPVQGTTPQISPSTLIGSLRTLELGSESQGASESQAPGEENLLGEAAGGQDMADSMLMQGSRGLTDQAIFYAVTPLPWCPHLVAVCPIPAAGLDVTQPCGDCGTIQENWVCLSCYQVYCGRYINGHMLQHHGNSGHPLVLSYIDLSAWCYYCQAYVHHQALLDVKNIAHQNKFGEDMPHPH
Assay: HDAC profiling HDAC6
Conditions: purified isoform, 10 concentrations from 10 μM, triplicate
measure.name: pIC50
On this scale, pIC50 is minus log10 of a concentration expressed in M (mol/L).

Reported pIC50 for CC[C@@]1(O)C(=O)OCc2c1cc1n(c2=O)Cc2c-1nc1ccccc1c2C=NOCCCCCC(=O)NO : what is it?
8.41

Further cases:
Reported pIC50 for CC[C@@]1(O)C(=O)OCc2c1cc1n(c2=O)Cc2c-1nc1ccc(O)cc1c2C=NOCCCCCC(=O)NO : what is it?
8.81
